The origin of these recorded values is the NIST ThermoML archive (doi:10.1016/j.jct.2013.12.029).

Details: 298.15 K; 101.33 kPa; Liquid; Vibrating tube method
reportedMetric: mass density (kg/m3)
Only the number, expressed in kg/m3, is required.

# mass density of CCCCCCC = 679.54

Lookup result for c1ccsc1 ; measured mass density: 1058.92

Memo: CCCC[N+]1(C)CCCCC1.O=S(=O)([N-]S(=O)(=O)C(F)(F)F)C(F)(F)F , reported mass density: 1379.2

The reported mass density of the molecule CCCCCC[N+]1(C)CCCCC1.O=S(=O)([N-]S(=O)(=O)C(F)(F)F)C(F)(F)F was 1325.4

For CC(C)=O the molecule record lists mass density as 785.32

Lab note: c1ccc2sccc2c1 [benzo[b]thiophene] gave mass density of 1427

Documented mass density of CCC[N+]1(C)CCCCC1.O=S(=O)([N-]S(=O)(=O)C(F)(F)F)C(F)(F)F : 1409.8

Lookup result for CCCO ; measured mass density: 799.52
